System: Sphaerotheca fuliginea
Test: In vivo test on Sphaerotheca fuliginea (cucurbits powdery mildew)
Conditions: gherkin plants, spray, 500 ppm, grading 12 days after contamination
parameter_measured: Eff. %
State the result as a value with its unit after it.

Sample answers from the record:
CCn1c(/C(=N\OCc2cccc(N)n2)c2ccccc2)noc1=O    75%
CCN(CC)c1cccc(CO/N=C(/c2ccccc2)c2noc(=O)n2C)n1    80%
Cn1c(/C(=N\OCc2cccc(N)n2)c2cccc(F)c2)noc1=O    85%
COc1ccc(OC)c(CC(=O)Nc2cccc(CO/N=C(/c3ccccc3)c3noc(=O)n3C)n2)c1    98%
COc1cccc(C(=O)Nc2nc(CO/N=C(/c3ccccc3)c3noc(=O)n3C)cs2)c1    100%
CCCCCC(=O)Nc1cccc(CO/N=C(/c2cccc(OC)c2)c2noc(=O)n2C)n1    72%

Could you now look at the following compound, please?
Prompt line: # get_value(readout='Eff. %', item= CCC(CC)C(=O)Nc1cccc(CO/N=C(/c2ccccc2)c2noc(=O)n2C)n1 )
Response line: 80%
